B1: HEEH_KT_rd6_0007 (parent)
chain: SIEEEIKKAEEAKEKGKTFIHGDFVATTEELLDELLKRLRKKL

# Variants of: B1
# experimental_details: folding stability dG (cDNA display proteolysis); higher = more stable
# conditions: PBS, room temperature

{"monomer_sequence": "SIEEELKKAEEAKEKGKTFIHGDFVATTEELLDELLKRLRKKL [I6L]", "units_symbol": "kcal/mol", "folding stability dG": 1.04}
{"monomer_sequence": "SIEEEIKVAEEAKEKGKTFIHGDFVATTEELLDELLKRLRKKL [K8V]", "units_symbol": "kcal/mol", "folding stability dG": 0.672}
{"monomer_sequence": "SIEEEIKKAEEAKEKGKTFIHGDFQATTEELLDELLKRLRKKL [V25Q]", "units_symbol": "kcal/mol", "folding stability dG": 1.07}
{"monomer_sequence": "SIEEEIKKAEEAKEKGKTFVHGDFVATTEELLDELLKRLRKKL [I20V]", "units_symbol": "kcal/mol", "folding stability dG": 1.27}
{"monomer_sequence": "SIEEEIKKAEEAKEKGKTFIHGDFVATTEELLDELLKRLIKKL [R40I]", "units_symbol": "kcal/mol", "folding stability dG": 0.776}
{"monomer_sequence": "SIEAEIKKAEEAKEKGKTFIHGDFVATTEELLDELLKRLRKKL [E4A]", "units_symbol": "kcal/mol", "folding stability dG": 1.25}
{"monomer_sequence": "SIEEEIKKAEEAKEKEKTFIHGDFVATTEELLDELLKRLRKKL [G16E]", "units_symbol": "kcal/mol", "folding stability dG": 0.895}
{"monomer_sequence": "SIEEEIKKAEEAKEKGKTFIHGDFVATTEELLDELQKRLRKKL [L36Q]", "units_symbol": "kcal/mol", "folding stability dG": 0.304}
{"monomer_sequence": "WIEEEIKKAEEAKEKGKTFIHGDFVATTEELLDELLKRLRKKL [S1W]", "units_symbol": "kcal/mol", "folding stability dG": 1.78}
{"monomer_sequence": "SIEEEIKKAEEAKEKGKTFIHGLFVATTEELLDELLKRLRKKL [D23L]", "units_symbol": "kcal/mol", "folding stability dG": 1.31}
{"monomer_sequence": "SIEEEIKKAEEAKEKGKTFIHGDYVATTEELLDELLKRLRKKL [F24Y]", "units_symbol": "kcal/mol", "folding stability dG": 1.02}
{"monomer_sequence": "SIEEAIKKAEEAKEKGKTFIHGDFVATTEELLDELLKRLRKKL [E5A]", "units_symbol": "kcal/mol", "folding stability dG": 2.05}
{"monomer_sequence": "SIEEEIKKAEEAKEKGKTFDHGDFVATTEELLDELLKRLRKKL [I20D]", "units_symbol": "kcal/mol", "folding stability dG": 0.774}
